A set of compounds tested on UniProtKB P05771, with measured Ki:
Structures can show the parent of a compound that is named as a salt.
// return numeric value only (unit: nM, not printed)

Example results:
CCc1ncc(F)c(Nc2n[nH]c3c2CN(C(=O)N2C[C@@H](C)N(C)C[C@@H]2C)C3(C)C)n1 [Example E1, acetate salt]
10.5
Cc1ncc(F)c(Nc2n[nH]c3c2CN(C(=O)N2C[C@@H](C)N(CC4(O)CCOCC4)C[C@@H]2C)C3(C)C)n1
157
CCc1ncc(F)c(Nc2n[nH]c3c2CN(C(=O)C2(F)CCN(C)CC2)C3(C)C)n1
25.4
CCOc1ncc(F)c(Nc2n[nH]c3c2CN(C(=O)N2C[C@@H](C)N(C)C[C@@H]2C)C3(C)C)n1
1.12

Query: Print UniProtKB P05771 Ki for COc1ncc(F)c(Nc2n[nH]c3c2CN(C(=O)N2CC(CCO)N(C)C[C@@H]2C)C3(C)C)n1 (single isomer, unassigned) .
Sequence (P05771 other isoform, or with tags, fused parts or gaps): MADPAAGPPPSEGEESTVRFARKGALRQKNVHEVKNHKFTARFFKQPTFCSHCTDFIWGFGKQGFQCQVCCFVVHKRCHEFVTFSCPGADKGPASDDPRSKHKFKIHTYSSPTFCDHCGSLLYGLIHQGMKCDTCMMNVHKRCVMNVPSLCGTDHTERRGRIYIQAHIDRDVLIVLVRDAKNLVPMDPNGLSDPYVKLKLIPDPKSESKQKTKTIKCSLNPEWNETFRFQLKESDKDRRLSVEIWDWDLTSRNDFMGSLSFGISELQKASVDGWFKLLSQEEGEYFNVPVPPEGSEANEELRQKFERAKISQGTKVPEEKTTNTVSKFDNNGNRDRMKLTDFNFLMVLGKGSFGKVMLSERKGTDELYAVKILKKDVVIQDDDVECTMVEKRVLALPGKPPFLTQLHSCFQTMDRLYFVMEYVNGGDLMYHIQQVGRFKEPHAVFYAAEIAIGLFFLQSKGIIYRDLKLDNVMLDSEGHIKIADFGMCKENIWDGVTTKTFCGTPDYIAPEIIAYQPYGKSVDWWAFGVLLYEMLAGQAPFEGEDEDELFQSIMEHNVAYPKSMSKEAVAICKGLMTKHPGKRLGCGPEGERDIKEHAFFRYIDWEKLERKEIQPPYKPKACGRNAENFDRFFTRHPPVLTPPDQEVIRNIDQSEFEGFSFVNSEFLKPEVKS
Response: 54.7
